# Test system: Staphylococcus epidermidis
# EXPERIMENT: In vitro antimicrobial activity against Staphylococcus epidermidis EPI1
# Assay type: functional
EXPERIMENTAL ENDPOINT: MIC (µg/mL)

{"CHEM SMILES": "CC[C@H]1OC(=O)C[C@@H](O)[C@H](C)[C@@H](O[C@@H]2O[C@H](C)[C@@H](O[C@H]3C[C@@](C)(O)[C@@H](O)[C@H](C)O3)[C@H](N(C)C)[C@H]2O)[C@@H](CCO)C[C@@H](C)C(=O)/C=C/C(C)=C/[C@@H]1C", "SYSTEM": "Staphylococcus epidermidis", "DISPLAY UNIT": "µg/mL", "VALUE COMPARATOR": "=", "REPORTED": 32}
{"CHEM SMILES": "CC[C@H]1OC(=O)C[C@@H](O)[C@H](C)[C@H]2OCC[C@H]2C[C@@H](C)C(=O)/C=C/C(C)=C/[C@@H]1CO[C@@H]1O[C@H](C)[C@@H](O)[C@@H](OC)[C@H]1OC", "SYSTEM": "Staphylococcus epidermidis", "DISPLAY UNIT": "µg/mL", "VALUE COMPARATOR": ">", "REPORTED": 128}
{"CHEM SMILES": "CC[C@H]1OC(=O)C[C@@H](O)[C@H](C)[C@@H](O[C@@H]2O[C@H](C)[C@@H](O[C@H]3C[C@@](C)(O)[C@@H](O)[C@H](C)O3)[C@H](N(C)C)[C@H]2O)[C@@H](CCOc2ccc(C=O)cc2)C[C@@H](C)C(=O)/C=C/C(C)=C/[C@@H]1CO[C@@H]1O[C@H](C)[C@@H](O)[C@@H](OC)[C@H]1OC", "SYSTEM": "Staphylococcus epidermidis", "DISPLAY UNIT": "µg/mL", "VALUE COMPARATOR": "=", "REPORTED": 1}
{"CHEM SMILES": "CC[C@H]1OC(=O)C[C@@H](O)[C@H](C)[C@@H](O[C@@H]2O[C@H](C)[C@@H](O)[C@H](N(C)C)[C@H]2O)[C@@H](CCO[N+](=O)[O-])C[C@@H](C)C(=O)/C=C/C(C)=C/[C@@H]1CO[C@@H]1O[C@H](C)[C@@H](O)[C@@H](OC)[C@H]1OC", "SYSTEM": "Staphylococcus epidermidis", "DISPLAY UNIT": "µg/mL", "VALUE COMPARATOR": "=", "REPORTED": 0.25}
